# System: MDA-MB-231
# assay-protocol: In vitro cell growth inhibition assay (MTT)
# Assay type: cell-based, human
# applied-conditions: MDA-MB-231 human breast cancer cell line, 48 h, MTT; read-out: IC50 MDA-MB-231
pIC50: −log10 of the molar value.
recorded-metric: pIC50

compound-string | measured-on | reported-result
C=C1C(=O)N(c2ccc(OC)cc2OC)[C@H]1c1ccc(OC)c(O)c1 | MDA-MB-231 | 6.54
C=C1C(=O)N(c2cc(OC)c(OC)c(OC)c2)[C@H]1c1ccc(OC)c(OC(=O)c2ccc([N+](=O)[O-])cc2)c1 | MDA-MB-231 | 6.98
C=C1C(=O)N(c2cc(OC)c(OC)c(OC)c2)[C@H]1c1ccc(OC)c(OCC(N)=O)c1 | MDA-MB-231 | 6.30
COc1ccc([C@H]2[C@@H](OC(=O)CCC(=O)O)C(=O)N2c2cc(OC)c(OC)c(OC)c2)cc1O | MDA-MB-231 | 6.99

* * *

Items are presented alongside their recorded melting point.
Structures can show the parent of a compound that is named as a salt.

compound | melting point
C=C1C(=O)N(c2cc(OC)c(OC)c(OC)c2)[C@H]1c1ccc(OC)c(OS(=O)(=O)N2CCOCC2)c1 | 134 to 135 °C
C=C1C(=O)N(c2cc(OC)c(OC)c(OC)c2)[C@H]1c1ccc(OC)c(OS(=O)(=O)c2ccc(NC(C)=O)cc2)c1 (as salt: benzenesulfonate) | 87 to 88 °C
C=C1C(=O)N(c2cc(OC)c(OC)c(OC)c2)[C@H]1c1ccc(OC)c(OCCCl)c1 | 91 to 92 °C
C=C1C(=O)N(c2cc(OC)c(OC)c(OC)c2)[C@H]1c1ccc(OC)c(OCCCCl)c1 | 72 to 73 °C
C=C1C(=O)N(c2cccc(OC)c2)[C@H]1c1ccc(OC)c(O)c1 | 104 to 105 °C
C=C1C(=O)N(c2cc(OC)c(OC)c(OC)c2)[C@H]1c1ccc(OC)c(OS(=O)(=O)c2ccc(C)cc2)c1 (as salt: benzenesulfonate) | 162 to 163 °C
C=C1C(=O)N(c2cc(OC)c(OC)c(OC)c2)[C@H]1c1ccc(OC)c(OC(C)=O)c1 | 122 to 123 °C

* * *

Each record here notes measured pIC50.
# measured-on: Pig brain tubulin (Sus scrofa, UniProt P02550+P02554)
# Construct: purchased; host or cells: pig brain
# Sequence (P02554 whole entry): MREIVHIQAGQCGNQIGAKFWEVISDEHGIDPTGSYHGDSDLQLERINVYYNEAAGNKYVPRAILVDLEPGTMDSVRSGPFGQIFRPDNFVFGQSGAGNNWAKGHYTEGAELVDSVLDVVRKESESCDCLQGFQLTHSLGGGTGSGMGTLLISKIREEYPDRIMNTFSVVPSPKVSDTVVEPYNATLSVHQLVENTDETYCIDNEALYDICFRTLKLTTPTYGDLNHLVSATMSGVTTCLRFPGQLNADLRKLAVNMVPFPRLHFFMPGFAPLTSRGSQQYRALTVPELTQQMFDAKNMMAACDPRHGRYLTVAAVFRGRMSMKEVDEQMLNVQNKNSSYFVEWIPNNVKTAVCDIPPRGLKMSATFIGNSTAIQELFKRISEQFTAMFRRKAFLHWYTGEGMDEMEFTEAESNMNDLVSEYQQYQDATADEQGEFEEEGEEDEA
# Sequence (P02550 whole entry): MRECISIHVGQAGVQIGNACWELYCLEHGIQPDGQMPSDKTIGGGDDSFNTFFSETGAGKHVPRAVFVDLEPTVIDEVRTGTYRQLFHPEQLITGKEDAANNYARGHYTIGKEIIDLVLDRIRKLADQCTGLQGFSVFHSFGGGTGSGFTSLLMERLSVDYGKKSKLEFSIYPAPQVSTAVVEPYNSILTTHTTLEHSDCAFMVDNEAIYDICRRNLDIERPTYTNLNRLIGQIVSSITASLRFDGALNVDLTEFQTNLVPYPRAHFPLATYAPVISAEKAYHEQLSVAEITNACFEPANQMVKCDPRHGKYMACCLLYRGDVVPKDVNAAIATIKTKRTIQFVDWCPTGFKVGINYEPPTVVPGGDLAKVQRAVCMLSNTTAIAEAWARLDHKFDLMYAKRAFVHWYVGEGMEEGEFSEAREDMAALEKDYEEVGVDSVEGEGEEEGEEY
# assay-protocol: In vitro tubulin polymerization assay
# Format: biochemical
pIC50: −log10 of the molar value.

compound-string | measured-on | pIC50
COc1ccc([C@H]2[C@H](CO)C(=O)N2c2cc(OC)c(OC)c(OC)c2)cc1O | Pig brain tubulin (Sus scrofa, UniProt P02550+P02554) | 5.46
COc1ccc([C@H]2[C@@H](C)C(=O)N2c2cc(OC)c(OC)c(OC)c2)cc1O | Pig brain tubulin (Sus scrofa, UniProt P02550+P02554) | 5.77

* * *

# assay-protocol: Acute toxicity assay
# Type: in vivo
# applied-conditions: both sexes, mouse, in vivo, ip; KM mice, single intraperitoneal injection, 14 days
# Method: KM mice were housed individually in a specific pathogen free facility. Groups of mice (n=10 per group, half male and half female) were injected intraperitoneally once with various dosages of 69 (95, 70, 50, 35, 25 mg/kg), 70 (500, 425, 350, 275, 200 mg/kg), 97 (275, 200, 150, 125 and 100 mg/kg) or vehicle (8.3% cremohorp EL and 8.3% alcohol in PBS) as negative control, respectively. […] The death of mice were monitored daily and recorded up to 14 days after injection.

compound-string | LD50 at 14 days
COc1ccc([C@H]2[C@@H](C)C(=O)N2c2cc(OC)c(OC)c(OC)c2)cc1O | > 500 mg/kg
